- Test system: A549 human cancer cell line
- Protocol summary: A549 differential cytotoxicity
- Format: cell-based
- Study conditions: Homo sapiens, A549, read-out: IC50 [oxic] (μM) ± SEM
Reported endpoint: IC50 (µM)

1. COc1cc(C2=CCCc3c2ccc(OC)c3OCc2ccc([N+](=O)[O-])s2)cc(OC)c1OC ... 0.46
2. COc1ccc2c(C(=O)c3cc(OC)c(OC)c(OC)c3)c(-c3ccc(OC)c(OCc4ccc([N+](=O)[O-])s4)c3)[nH]c2c1 ... 5.58
3. Nc1n[n+]([O-])c2ccccc2[n+]1[O-] [TPZ (1), tirapazamine, reference compound] ... 63.5
4. COc1cc(C2=CCCCc3c2ccc(OC)c3OCc2ccc([N+](=O)[O-])s2)cc(OC)c1OC ... 0.05
5. COc1cc(C2=CCCc3c2ccc(OC)c3OCc2cnc([N+](=O)[O-])n2C)cc(OC)c1OC ... 0.25
6. COc1cc(C2=CCCCc3c2ccc(OC)c3OC(C)c2ccc([N+](=O)[O-])s2)cc(OC)c1OC (stereo not drawn) ... 2.27

====

Below is a list of entries, each paired with its recorded IC50 value.
- Test system: A549 human cancer cell line
- Protocol summary: A549 differential cytotoxicity
- Format: cell-based
- Study conditions: Homo sapiens, A549, read-out: IC50 [anoxic] (μM) ± SEM
Reported endpoint: IC50 (µM)

1) COc1cc(C2=CCCc3c2ccc(OC)c3OCc2ccc([N+](=O)[O-])s2)cc(OC)c1OC ... 0.48
2) COc1cc(C2=CCCc3c2ccc(OC)c3OC(C)c2cnc([N+](=O)[O-])n2C)cc(OC)c1OC (stereo not shown) ... 0.05
3) COc1cc(C2=CCCCc3c2ccc(OC)c3OC(C)c2ccc([N+](=O)[O-])s2)cc(OC)c1OC (stereo not shown) ... 0.38
4) COc1ccc2c(C(=O)c3cc(OC)c(OC)c(OC)c3)c(-c3ccc(OC)c(OC(C)c4ccc([N+](=O)[O-])s4)c3)[nH]c2c1 (stereo not shown) ... 0.12
5) COc1cc(C2=CCCc3c2ccc(OC)c3OC(C)c2ccc([N+](=O)[O-])s2)cc(OC)c1OC (stereo not shown) ... 0.25
6) COc1cc(C2=CCCCc3c2ccc(OC)c3OC(C)c2cnc([N+](=O)[O-])n2C)cc(OC)c1OC (stereo not shown) ... 0.14
7) COc1ccc2c(C(=O)c3cc(OC)c(OC)c(OC)c3)c(-c3ccc(OC)c(OCc4ccc([N+](=O)[O-])s4)c3)[nH]c2c1 ... 0.07

====

- Tested on: A549 human cancer cell line
- Protocol summary: A549 differential cytotoxicity
- Format: cell-based
- Study conditions: Homo sapiens, A549, read-out: IC50 [anoxic] (μM) ± SEM
Below is a list of entries, each paired with its recorded IC50 value.
Reported endpoint: IC50 (µM)

1) COc1cc(C2=CCCc3c2ccc(OC)c3OC(C)(C)c2ccc([N+](=O)[O-])s2)cc(OC)c1OC [KGP66 (14)] ... 0.05
2) COc1cc(C2=CCCc3c2ccc(OC)c3OCc2cnc([N+](=O)[O-])n2C)cc(OC)c1OC [KGP105 (15)] ... 0.04
3) COc1cc(C2=CCCCc3c2ccc(OC)c3OCc2cnc([N+](=O)[O-])n2C)cc(OC)c1OC [KGP293 (21)] ... 0.04
4) Nc1n[n+]([O-])c2ccccc2[n+]1[O-] [TPZ (1), tirapazamine, reference compound] ... 7.1
5) COc1cc(C2=CCCCc3c2ccc(OC)c3OCc2ccc([N+](=O)[O-])s2)cc(OC)c1OC [KGP305 (19)] ... 0.22
6) COc1ccc2c(C(=O)c3cc(OC)c(OC)c(OC)c3)c(-c3ccc(OC)c(OC(C)(C)c4ccc([N+](=O)[O-])s4)c3)[nH]c2c1 [KGP354 (25)] ... 0.07

====

Below is a list of entries, each paired with its recorded HCR (hypoxia cytotoxicity ratio) value.
- Test system: A549 human cancer cell line
- Protocol summary: A549 differential cytotoxicity
- Format: cell-based
- Study conditions: A549; oxic vs anoxic IC50; 4 h incubation then 48 h oxic exposure
Reported endpoint: HCR (hypoxia cytotoxicity ratio)

1) COc1cc(C2=CCCc3c2ccc(OC)c3OC(C)c2cnc([N+](=O)[O-])n2C)cc(OC)c1OC (stereo not shown) ... 7.6
2) COc1cc(C2=CCCc3c2ccc(OC)c3OCc2ccc([N+](=O)[O-])s2)cc(OC)c1OC ... 1.0
3) COc1cc(C2=CCCCc3c2ccc(OC)c3OC(C)c2cnc([N+](=O)[O-])n2C)cc(OC)c1OC (stereo not shown) ... 4.8
4) COc1cc(C2=CCCCc3c2ccc(OC)c3OCc2ccc([N+](=O)[O-])s2)cc(OC)c1OC ... 0.2
